Where these numbers come from: ChEMBL document CHEMBL1201862

# key: entry, value: GI50
Test system: TK-10
EXPERIMENTAL PROTOCOL: NCI tumour cell line growth inhibition, 48 h
Activity calls are given as the source filed them. No stated cut-off is given here; in the data, active = GI50 up to about 1.1 µM and inactive = higher.
RECORDED METRIC: GI50

{"columns": ["COMPOUND", "VALUE"],
 "data": [
  ["CC1(C)OC2OC(COC(=O)C(c3ccccc3)c3ccccc3)C3OC(C)(C)OC3C2O1 (stereo not given)", "> 10 µM (inactive)"],
  ["CO/C(=N\\N=Cc1ccccc1)c1ccncc1", "> 100 µM (inactive)"],
  ["CCOC(=O)c1cn2c(n1)sc1cc(Cl)cc(Cl)c12", "> 100 µM (inactive)"],
  ["CCN1CC2=C(OC(N)=C(C#N)C2c2ccc(Cl)cc2)/C(=C/c2ccc(Cl)cc2)C1 (stereo not given)", "21 µM (inactive)"],
  ["COc1ccc(/C=C2\\Sc3nnc(-c4ccccc4)n3N=C2c2cc(F)c(Cl)cc2Cl)cc1OC", "> 100 µM (inactive)"]
]}
